Molecular target: HIV-integrase (Human immunodeficiency virus type 1 group M subtype B, UniProt P04585)
Construct: 0.26 ng of recombinant integrase was incubated with the beads for 90 min at 37 C
Experiment: HIV integrase SPA integration assay (biotin-labeled substrate DNA on streptavidin SPA beads, P33-labeled target DNA)
Format: biochemical
Settings: percent inhibition of HIV-integrase in the presence of 20 μM of compound
What inhibition at 20 µM was measured for each of the following?
Answers are plain numbers, in %.

{"columns": ["SMI", "inhibition at 20 µM [%]"],
 "data": [
  ["CON(Cc1ccc(F)cc1)C(=O)C1=C(O)C(=O)N(CCN2CCNCC2)C1", 99.3],
  ["CN(Cc1ccc(F)cc1)C(=O)C1=C(O)C(=O)N(CCc2ccccc2)C1", 99.9],
  ["CN(Cc1ccc(F)cc1)C(=O)C1=C(O)C(=O)N(CCc2ccc(F)cc2)C1", 99.9],
  ["CON(C(=O)C1=C(O)C(=O)N(C)C1)C(c1ccc(F)cc1)c1ccc(F)cc1", 10],
  ["CN1CC(C(=O)N(C)C(Cc2ccc(Cl)cc2)Cc2ccc(Cl)cc2)=C(O)C1=O", 96.5],
  ["CCOP(=O)(CCN1CC(C(=O)N(C)Cc2ccc(Cl)c(Cl)c2)=C(O)C1=O)OCC", 99.9]
]}

Would you be so kind as to report inhibition at 20 µM for each listed record?
1. CN1CC(C(=O)N(Cc2ccc(F)cc2)OCC(=O)OC(C)(C)C)=C(O)C1=O
2. COC(=O)c1ccc(CN2CC(C(=O)N(C)Cc3ccc(Cl)c(Cl)c3)=C(O)C2=O)cc1

output:
1. 99.8
2. 99.9

List reported inhibition at 20 µM for each of these compounds:
1. CN(Cc1ccc(F)cc1)C(=O)C1=C(O)C(=O)N(CCCc2ccccc2)C1
2. COc1ccc(CN(OC)C(=O)C2=C(O)C(=O)N(C)C2)cc1
3. CN(Cc1ccc(Cl)c(Cl)c1)C(=O)C1=C(O)C(=O)N(CCCCCCC(=O)O)C1
4. CON(Cc1cccc(F)c1)C(=O)C1=C(O)C(=O)N(C)C1
5. CON(Cc1ccc(F)c(F)c1)C(=O)C1=C(O)C(=O)N(C)C1

output:
1. 99.9
2. 99.9
3. 99.9
4. 98.5
5. 99.9

# per-item lookup of inhibition at 20 µM; items listed below
1. COC(=O)c1ccc(CN(OC)C(=O)C2=C(O)C(=O)N(C)C2)cc1
2. CN(Cc1ccc(Cl)c(Cl)c1)C(=O)C1=C(O)C(=O)N(C2CC2)C1
3. CON(Cc1ccc(F)cc1)C(=O)C1=C(O)C(=O)N(CCN2CCOCC2)C1

output:
1. 96.5
2. 99.7
3. 99.5

Here "CN(Cc1ccc(Cl)c(Cl)c1)C(=O)C1=C(O)C(=O)N(Cc2ccc(C(=O)O)cc2)C1" was tested on HIV-integrase (Human immunodeficiency virus type 1 group M subtype B, UniProt P04585), and its inhibition at 20 µM came to 92

====

Provide the reported melting point of each item.

{"columns": ["COMPOUND", "melting point"],
 "data": [
  ["CN(Cc1ccc(Cl)c(Cl)c1)C(=O)C1=C(O)C(=O)N(C2CC2)C1", "163 to 164 °C"],
  ["CON(Cc1ccc(F)cc1Cl)C(=O)C1=C(O)C(=O)N(C)C1", "152 to 155 °C"],
  ["CON(C(=O)C1=C(O)C(=O)N(C)C1)C(C)c1ccc(F)cc1 (stereo not drawn)", "136 to 138 °C"],
  ["CON(CCc1ccc(F)cc1)C(=O)C1=C(O)C(=O)N(C)C1", "157 °C (dec.)"],
  ["CN1CC(C(=O)N(C)C(Cc2ccc(Cl)cc2)Cc2ccc(Cl)cc2)=C(O)C1=O", "152 to 154 °C"]
]}

Please give melting point for each item listed below.
1. CON(Cc1ccc(C(F)(F)F)cc1)C(=O)C1=C(O)C(=O)N(C)C1
2. CC(C)CON(Cc1ccc(F)cc1)C(=O)C1=C(O)C(=O)N(C)C1

output:
1. 145 °C (dec.)
2. 96 to 97 °C

====

Target: HIV-integrase (Human immunodeficiency virus type 1 group M subtype B)
Construct: 0.26 ng of recombinant integrase was incubated with the beads for 90 min at 37 C
Assay: HIV integrase SPA integration assay (biotin-labeled substrate DNA on streptavidin SPA beads, P33-labeled target DNA)
Type: biochemical
Conditions: percent inhibition of HIV-integrase in the presence of 20 μM of compound
MEASURED_METRIC: inhibition at 20 µM (%)
Answers are plain numbers, in %.

Answered examples (8):
{"columns": ["MOLECULE", "UNIT", "OBSERVED_MEASUREMENT"],
 "data": [
  ["CN(Cc1ccc(Cl)c(Cl)c1)C(=O)C1=C(O)C(=O)N(Cc2ccncc2)C1", "%", 99.9],
  ["CN1CC(C(=O)N(Cc2ccc(F)cc2)c2ccc(Cl)c(Cl)c2)=C(O)C1=O", "%", 99.9],
  ["CN(Cc1ccc(F)cc1)C(=O)C1=C(O)C(=O)N(CCc2ccc(Cl)cc2Cl)C1", "%", 99.9],
  ["CN(Cc1ccc(Cl)c(Cl)c1)C(=O)C1=C(O)C(=O)N(CCC(=O)NCC(=O)O)C1", "%", 99.9],
  ["CON(C(=O)C1=C(O)C(=O)N(C)C1)C(C)c1ccc(F)cc1 (stereo not drawn)", "%", 97],
  ["CCON(Cc1ccc(F)cc1)C(=O)C1=C(O)C(=O)N(C)C1", "%", 99],
  ["CON(Cc1ccccc1F)C(=O)C1=C(O)C(=O)N(C)C1", "%", 92],
  ["CON(Cc1ccc(C)c(F)c1)C(=O)C1=C(O)C(=O)N(C)C1", "%", 99.9]
]}

Entry "CN1CC(C(=O)N(Cc2ccc(F)cc2)OCC(=O)O)=C(O)C1=O" — recorded inhibition at 20 µM = 99.9

====

Molecular target: HIV-integrase (Human immunodeficiency virus type 1 group M subtype B)
Construct: 0.26 ng of recombinant integrase was incubated with the beads for 90 min at 37 C
Assay: HIV integrase SPA integration assay (biotin-labeled substrate DNA on streptavidin SPA beads, P33-labeled target DNA)
Type: biochemical
Conditions: percent inhibition of HIV-integrase in the presence of 20 μM of compound
MEASURED_METRIC: inhibition at 20 µM (%)
Numbers only, in %.

Please review the following examples before continuing.
{"columns": ["SMI", "inhibition at 20 µM (%)"],
 "data": [
  ["CN(Cc1ccc(F)cc1)C(=O)C1=C(O)C(=O)N(CCc2cccs2)C1", 99.9],
  ["CN(Cc1ccc(Cl)c(Cl)c1)C(=O)C1=C(O)C(=O)N(CCC(N)=O)C1", 99.9],
  ["CC(C)N1CC(C(=O)N(C)Cc2ccc(F)cc2)=C(O)C1=O", 99.9],
  ["CN(Cc1ccc(Cl)c(Cl)c1)C(=O)C1=C(O)C(=O)N(CCCn2ccnc2)C1", 99.9],
  ["CN(Cc1ccc(Cl)c(Cl)c1)C(=O)C1=C(O)C(=O)N(CCc2ccc(S(N)(=O)=O)cc2)C1", 99.9]
]}

Parameter requested: inhibition at 20 µM. Apply to each item below.
1. CN(Cc1ccc(Cl)c(Cl)c1)C(=O)C1=C(O)C(=O)N(CCN2CCOCC2)C1
2. CN1CC(C(=O)N(C)Cc2ccc(F)cc2)=C(O)C1=O
3. CON(Cc1ccc(NC(C)=O)cc1)C(=O)C1=C(O)C(=O)N(C)C1
4. CN1CC(C(=O)N(Cc2ccc(F)cc2)Cc2ccc(F)cc2)=C(O)C1=O
5. CON(Cc1ccc(Cl)cc1)C(=O)C1=C(O)C(=O)N(C)C1
6. CN(Cc1ccc(Cl)c(Cl)c1)C(=O)C1=C(O)C(=O)N(CCNC(=O)CCN2CCOCC2)C1

output:
1: 99.9; 2: 99.9; 3: 12; 4: 96; 5: 99.9; 6: 99.9

Could you tell me inhibition at 20 µM for each of these compounds? They are listed below.
1. CC(C)CON(Cc1ccc(F)cc1)C(=O)C1=C(O)C(=O)N(C)C1
2. CNCCN1CC(C(=O)N(C)Cc2ccc(Cl)c(Cl)c2)=C(O)C1=O
3. CON(Cc1ccc(C)cc1)C(=O)C1=C(O)C(=O)N(C)C1
4. CN1CC(C(=O)N(C)Cc2ccccc2)=C(O)C1=O
5. CON(Cc1ccc(F)c(C)c1)C(=O)C1=C(O)C(=O)N(C)C1
6. CON(Cc1ccc(F)cc1F)C(=O)C1=C(O)C(=O)N(C)C1
7. COC(=O)CCN1CC(C(=O)N(C)Cc2ccc(Cl)c(Cl)c2)=C(O)C1=O

output:
99.5
99.7
99.9
92.4
99.7
99.7
99.9

Look at each compound and report its inhibition at 20 µM.
1. CON(Cc1ccc(F)c(C#N)c1)C(=O)C1=C(O)C(=O)N(C)C1
2. CON(Cc1ccc(F)c(Br)c1)C(=O)C1=C(O)C(=O)N(C)C1

output:
99.3
99.9
